The compounds listed here are annotated with their concentration at 5 min.
# Assay: Concentration in Blood Serum after subcutaneous dosing (bioassay using Escherichia coli)
# Type: in vivo
# Reported conditions: mouse, sc, 1/12 hour, 25 mg/Kg subcutaneously, mice
Counter-ions that a name gives are not always drawn.
Answer with a number only, understood to be in ng/mL.

Here is how some compounds turned out for concentration at 5 min.
[
  {
    "Compound": "C[n+]1ccc(SCC2=C(C(=O)[O-])N3C(=O)C(NC(=O)C(=NOC(C)(C)C(=O)O)c4csc(N)n4)C3OC2)cc1 (centres unmarked) [Compound 14, (Sodium Salt)]",
    "concentration at 5 min, ng/mL": 18000
  },
  {
    "Compound": "CC(C)(O/N=C(\\C(=O)N[C@@H]1C(=O)N2C(C(=O)[O-])=C(C[n+]3ccccc3)CS[C@H]12)c1csc(N)n1)C(=O)O [Ceftazidime, reference compound]",
    "concentration at 5 min, ng/mL": 13000
  },
  {
    "Compound": "CC(C)(ON=C(C(=O)NC1C(=O)N2C(C(=O)[O-])=C(CSc3cc[n+](CC(F)(F)F)cc3)COC12)c1csc(N)n1)C(=O)O (centres unmarked) [Compound 16, (Sodium Salt)]",
    "concentration at 5 min, ng/mL": 16000
  },
  {
    "Compound": "CC1OC2C(NC(=O)C(=NOC(C)(C)C(=O)O)c3csc(N)n3)C(=O)N2C(C(=O)[O-])=C1CSc1cc[n+](C)cc1 (centres unmarked) [Compound 1, (Sodium Salt)]",
    "concentration at 5 min, ng/mL": 14500
  }
]

**Query** Item CC1OC2C(NC(=O)C(=NOCC(=O)O)c3csc(N)n3)C(=O)N2C(C(=O)[O-])=C1CSc1cc[n+](CC(=O)O)cc1 (centres unmarked) [Compound 9, (Sodium Salt)] has what recorded concentration at 5 min?
**Result** 36000

* * *

The compounds listed here are annotated with their MIC.
# Tested on: Pseudomonas aeruginosa MB-3833
# Assay: Minimum Inhibitory Concentration (MIC), antibacterial spectrum in vitro
# Type: cell-based
# Reported conditions: MB3833; Pseudomonas aeruginosa MB-3833; read-out: Minimum Inhibitory Concentration (MIC)
Counter-ions that a name gives are not always drawn.
Answer with a number only, understood to be in µg/mL.

**Query** Item CC1OC2C(NC(=O)C(=NOCC(=O)O)c3csc(N)n3)C(=O)N2C(C(=O)[O-])=C1CSc1cc[n+](CCF)cc1 (stereo not drawn) [Compound 19, (Sodium Salt)] has what recorded MIC?
**Result** 3.13

**Query** Repeat for the following compound: CON=C(C(=O)NC1C(=O)N2C(C(=O)[O-])=C(CSc3cc[n+](CC(F)(F)F)cc3)C(C)OC12)c1csc(N)n1 (stereo not drawn)
**Result** 3.13

**Query** Repeat for the following compound: C[n+]1ccc(SCC2=C(C(=O)[O-])N3C(=O)C(NC(=O)C(=NOCC(=O)O)c4csc(N)n4)C3OC2)cc1 (stereo not drawn) [Compound 13, (Sodium Salt)]
**Result** 6.25

**Query** Repeat for the following compound: CCON=C(C(=O)NC1C(=O)N2C(C(=O)[O-])=C(CSc3cc[n+](CC(=O)O)cc3)C(C)OC12)c1csc(N)n1 (stereo not drawn) [Compound 8, (Sodium Salt)]
**Result** 12.5

**Query** Repeat for the following compound: CC1OC2C(NC(=O)C(=NOC(C)(C)C(=O)O)c3csc(N)n3)C(=O)N2C(C(=O)[O-])=C1CSc1cc[n+](CC(F)(F)F)cc1 (stereo not drawn) [Compound 4, (Sodium Salt)]
**Result** 3.13

**Query** Repeat for the following compound: CC1OC2C(NC(=O)C(=NOCC(=O)O)c3csc(N)n3)C(=O)N2C(C(=O)[O-])=C1CSc1cc[n+](CC(=O)O)cc1 (stereo not drawn) [Compound 9, (Sodium Salt)]
**Result** 3.13
